Assay: in vivo
Settings: both, C57BL/6, mouse, in vivo, po, 10 mg/kg, Cmax
readout: Cmax (µg/mL)
# number only, unit µg/mL dropped from output

Which Cmax is listed for Cc1ccc(NC(=O)c2ccc(CN3CCN(C)CC3)cc2)cc1Nc1nccc(-c2cccnc2)n1 ?
1.47

* * *

Assay: in vivo
Conditions: both, C57BL/6, mouse, in vivo, iv, 10 mg/kg
readout: Vd (L/kg)
# number only, unit L/kg dropped from output

Which Vd is listed for Cc1cn(-c2cc(NC(=O)c3ccc(C)c(Nc4nccc(-c5cccnc5)n4)c3)cc(C(F)(F)F)c2)cn1 ?
0.29

* * *

Assay: in vivo
Settings: male, dog, in vivo, po, 30 mg/kg
Experimental: Prairie dog PK studies were performed at Centers for Disease Control and Prevention (CDC, Atlanta). […] The animals were collected in Lubbock, TX. All animals are given full physical examination by a veterinarian prior to being shipped to CDC. […] For each blood sample collection, prairie dogs were anesthetized with 5% isoflurane gas and maintained with 1–3% isoflurane during sample collection through peripheral veins. Plasma was prepared and stored at -70 °C until bioanalysis. […]
readout: AUC(0-inf) (ng·h/mL)
# number only, unit ng·h/mL dropped from output

Which AUC(0-inf) is listed for Cc1ccc(NC(=O)c2ccc(CN3CCN(C)CC3)cc2)cc1Nc1nccc(-c2cccnc2)n1 [imatinib] ?
8090

* * *

Experiment: in vivo
Conditions: cynomolgus monkey, in vivo, iv, 10 mg/kg, T1/2, nilotinib, IV 10 mg/kg, Cynomolgus monkeys, mean ± SD
readout: half-life (min)
# number only, unit min dropped from output

Which half-life is listed for Cc1cn(-c2cc(NC(=O)c3ccc(C)c(Nc4nccc(-c5cccnc5)n4)c3)cc(C(F)(F)F)c2)cn1 ?
468

* * *

Test: in vivo
Details: cynomolgus monkey, in vivo, po, 10 mg/kg
readout: Cmax (ng/mL)
# number only, unit ng/mL dropped from output

Which Cmax is listed for Cc1cn(-c2cc(NC(=O)c3ccc(C)c(Nc4nccc(-c5cccnc5)n4)c3)cc(C(F)(F)F)c2)cn1 [nilotinib] ?
410

* * *

Assay: in vivo
Conditions: cynomolgus monkey, in vivo, po, 10 mg/kg
readout: bioavailability (%)
# number only, unit % dropped from output

Which bioavailability is listed for Cc1cn(-c2cc(NC(=O)c3ccc(C)c(Nc4nccc(-c5cccnc5)n4)c3)cc(C(F)(F)F)c2)cn1 ?
13

* * *

Test: in vivo
Settings: male, dog, in vivo, po, 20 mg/kg, Bioavailability, nilotinib, oral 20 mg/kg in NMP/PEG 300 vs IV 10 mg/kg, prairie dogs
readout: bioavailability (%)
# number only, unit % dropped from output

Which bioavailability is listed for Cc1cn(-c2cc(NC(=O)c3ccc(C)c(Nc4nccc(-c5cccnc5)n4)c3)cc(C(F)(F)F)c2)cn1 ?
24

* * *

Test: in vivo
Details: male, Hartley, guinea pig, iv, 10 mg/kg
readout: Vd

Which Vd is listed for Cc1cn(-c2cc(NC(=O)c3ccc(C)c(Nc4nccc(-c5cccnc5)n4)c3)cc(C(F)(F)F)c2)cn1 ?
37.6 L/kg

* * *

Test: in vivo
Settings: cynomolgus monkey, in vivo, po, 10 mg/kg
readout: Tmax (h)
# number only, unit h dropped from output

Which Tmax is listed for Cc1cn(-c2cc(NC(=O)c3ccc(C)c(Nc4nccc(-c5cccnc5)n4)c3)cc(C(F)(F)F)c2)cn1 [nilotinib] ?
1.67

* * *

Assay: in vivo
Settings: male, dog, in vivo, iv, 10 mg/kg, T1/2, nilotinib, IV 10 mg/kg, prairie dogs, mean ± SD
readout: half-life (h)
# number only, unit h dropped from output

Which half-life is listed for Cc1cn(-c2cc(NC(=O)c3ccc(C)c(Nc4nccc(-c5cccnc5)n4)c3)cc(C(F)(F)F)c2)cn1 ?
6.5
